System: pigweed, palmer
procedure details: Test C postemergence
Format: in vivo, Amaranthus palmeri
run parameters: 125 g ai/ha, postemergence, 10 days; 0 to 100 scale, 0 no effect, 100 complete control
endpoint name: Plant response rating, Pigweed, Palmer
Could you respond with only the numeric value?

For orientation, consider the following solved cases.
* COc1cc(C(=O)N2C[C@H](C)Oc3c(Cl)cccc32)cc(-n2cnc(C3CC3)n2)c1 | 80
* COc1ccc(-n2cncn2)cc1C(=O)N1C[C@H](C)Oc2ccccc21 | 70
* CCc1ncn(-c2ccc(C)c(C(=O)N3CC(C(F)(F)F)Oc4c(Cl)cccc43)c2)n1 (single isomer, unassigned) | 90
* COC(=O)N(C)c1ncn(-c2cccc(C(=O)N3C[C@H](C)Oc4c(C)cccc43)c2)n1 | 30
* Cc1ccc(-n2cnc(C(C)(C)O)n2)cc1C(=O)N1C[C@H](C)Oc2c(C)cccc21 | 80
* Cc1c(F)cc(-n2cnc(C(C)C)n2)cc1C(=O)N1C[C@H](C)Oc2c(Cl)cccc21 | 90
* COC[C@H]1CN(C(=O)c2cc(-n3cncn3)ccc2OC)c2cccc(Cl)c2O1 | 30
* Cc1ccc(-n2cnc(C3CCC3)n2)cc1C(=O)N1CC(C(F)(F)F)Oc2c(Cl)cccc21 (single isomer, unassigned) | 100

// lookup Plant response rating, Pigweed, Palmer for C[C@H]1CN(C(=O)c2cc(-n3cncn3)cc3c2OCCO3)c2cccc(Cl)c2O1
70

// lookup Plant response rating, Pigweed, Palmer for COc1ccc(-n2cnc(C(C)C)n2)cc1C(=O)N1C[C@H](C)Oc2c1cccc2C(F)(F)F
100

// lookup Plant response rating, Pigweed, Palmer for Cc1cc(-n2cnc(C(C)C)n2)cc(C(=O)N2C[C@H](C)Oc3c(Cl)cccc32)c1C
90

// lookup Plant response rating, Pigweed, Palmer for CCc1ncn(-c2ccc(OC)c(C(=O)N3C[C@H](COC)Oc4c(Cl)cccc43)c2)n1
90
